Tested on: HUVEC/MSC spheroids viability
Test: Human HUVEC/MSC cell line growth inhibition [KRAS2];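 further: percent of DMSO vehicle control luminescence so 100% = untreated viability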
Settings: second compound 0.316 µM; first compound 1 µM; active compounds read low
Quick reference: viability, T/C of the listed items.
The reply should be a number in %, with the unit left off.

COc1cc2nccc(Oc3ccc(NC(=O)C4(C(=O)Nc5ccc(F)cc5)CC4)cc3)c2cc1OC + CC1OCC2(CCN(c3cnc(Sc4ccnc(N)c4Cl)c(N)n3)CC2)C1N; 83
CC1(C)CCC(CN2CCN(c3ccc(C(=O)NS(=O)(=O)c4ccc(NCC5CCOCC5)c([N+](=O)[O-])c4)c(Oc4cnc5[nH]ccc5c4)c3)CC2)=C(c2ccc(Cl)cc2)C1 + CNCc1ccccc1-c1csc(C(C)Nc2nc(C)nc3cc(OC)c(OC)cc23)c1; 104
COc1cc2nccc(Oc3ccc(NC(=O)C4(C(=O)Nc5ccc(F)cc5)CC4)cc3)c2cc1OC + CNCc1ccccc1-c1csc(C(C)Nc2nc(C)nc3cc(OC)c(OC)cc23)c1; 71.2
CCNC(=O)CC1N=C(c2ccc(Cl)cc2)c2cc(OC)ccc2-n2c(C)nnc21 (stereo not drawn) + C=CC(=O)N1CCN(c2nc(=O)n(-c3c(C)ccnc3C(C)C)c3nc(-c4c(O)cccc4F)c(F)cc23)C(C)C1; 143
CC(C)NCC(C(=O)N1CCN(c2ncnc3c2C(C)CC3O)CC1)c1ccc(Cl)cc1 (stereo not drawn) + COc1cc2nc(C)nc(NC(C)c3cc(N)cc(C(F)(F)F)c3)c2cc1OC1CCOC1; 62.9

The recorded viability, T/C for entry CCN1CCN(Cc2ccc(Nc3ncc(F)c(-c4cc(F)c5nc(C)n(C(C)C)c5c4)n3)nc2)CC1 + CC1OCC2(CCN(c3cnc(Sc4ccnc(N)c4Cl)c(N)n3)CC2)C1N equals 114

The recorded viability, T/C for entry O=C(c1cc(Cc2n[nH]c(=O)c3ccccc23)ccc1F)N1CCN(C(=O)C2CC2)CC1 + COc1cc2nc(C)nc(NC(C)c3cc(N)cc(C(F)(F)F)c3)c2cc1OC1CCOC1 equals 93.8

The recorded viability, T/C for entry CC(C)NCC(C(=O)N1CCN(c2ncnc3c2C(C)CC3O)CC1)c1ccc(Cl)cc1 (stereo not drawn) + CNCc1ccccc1-c1csc(C(C)Nc2nc(C)nc3cc(OC)c(OC)cc23)c1 equals 73.5

----------
Quick reference: viability, T/C of the listed items.
System: HUVEC/MSC spheroids viability
Experiment: Human HUVEC/MSC cell line growth inhibition [KRAS2];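 further: percent of DMSO vehicle control luminescence so 100% = untreated viability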
Details: second compound 3.16 µM; first compound 0.00949 µM; active compounds read low
The reply should be a number in %, with the unit left off.

CC(=O)Nc1cccc(-n2c(=O)n(C3CC3)c(=O)c3c(Nc4ccc(I)cc4F)n(C)c(=O)c(C)c32)c1 + COc1cc2nc(C)nc(NC(C)c3cc(N)cc(C(F)(F)F)c3)c2cc1OC1CCOC1; 76.4
CC(=O)Nc1cccc(-n2c(=O)n(C3CC3)c(=O)c3c(Nc4ccc(I)cc4F)n(C)c(=O)c(C)c32)c1 + CNCc1ccccc1-c1csc(C(C)Nc2nc(C)nc3cc(OC)c(OC)cc23)c1; 70.2

Turning now to a further record.
The recorded viability, T/C for entry CC1COCCN1c1cc(-c2ccnn2C)c2ccnc(-c3ccn[nH]3)c2n1 (stereo not drawn) + CC1OCC2(CCN(c3cnc(Sc4ccnc(N)c4Cl)c(N)n3)CC2)C1N equals 84.7

----------
System: HUVEC/MSC spheroids viability
Assay: Human HUVEC/MSC cell line growth inhibition [KRAS2]; active = viability on the fitted dose curve at most 10% of control; inactive = the rest;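 further: percent of DMSO vehicle control luminescence so 100% = untreated viability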
Details: second compound 0.0316 µM; first compound 10 µM
A correct response names exactly one class from t for active, f for inactive

CC(C)NCC(C(=O)N1CCN(c2ncnc3c2C(C)CC3O)CC1)c1ccc(Cl)cc1 (stereo unspecified) + COc1cc2nc(C)nc(NC(C)c3cc(N)cc(C(F)(F)F)c3)c2cc1OC1CCOC1; f
Cn1nccc1Nc1nccc(-c2cc3c(s2)C(C)(C)N(CCN2CCOCC2)C3=O)n1 + C=CC(=O)N1CCN(c2nc(=O)n(-c3c(C)ccnc3C(C)C)c3nc(-c4c(O)cccc4F)c(F)cc23)C(C)C1; t
CCNC(=O)CC1N=C(c2ccc(Cl)cc2)c2cc(OC)ccc2-n2c(C)nnc21 (stereo unspecified) + CNCc1ccccc1-c1csc(C(C)Nc2nc(C)nc3cc(OC)c(OC)cc23)c1; f
Cn1nccc1Nc1nccc(-c2cc3c(s2)C(C)(C)N(CCN2CCOCC2)C3=O)n1 + COc1cc2nc(C)nc(NC(C)c3cc(N)cc(C(F)(F)F)c3)c2cc1OC1CCOC1; t
CC1(C)CCC(CN2CCN(c3ccc(C(=O)NS(=O)(=O)c4ccc(NCC5CCOCC5)c([N+](=O)[O-])c4)c(Oc4cnc5[nH]ccc5c4)c3)CC2)=C(c2ccc(Cl)cc2)C1 + CNCc1ccccc1-c1csc(C(C)Nc2nc(C)nc3cc(OC)c(OC)cc23)c1; t

Would you kindly look at the next entry?
Call for entry COc1cc2nccc(Oc3ccc(NC(=O)C4(C(=O)Nc5ccc(F)cc5)CC4)cc3)c2cc1OC + C=CC(=O)N1CCN(c2nc(=O)n(-c3c(C)ccnc3C(C)C)c3nc(-c4c(O)cccc4F)c(F)cc23)C(C)C1 :
f

----------
Quick reference: viability, T/C of the listed items.
System: HUVEC/MSC spheroids viability
Experiment: Human HUVEC/MSC cell line growth inhibition [KRAS2];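 further: percent of DMSO vehicle control luminescence so 100% = untreated viability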
Conditions: second compound 0.0316 µM; first compound 10 µM; active compounds read low
The reply should be a number in %, with the unit left off.

Solved cases (5 shown):
COC(=O)c1ccc2c(C(=Nc3ccc(N(C)C(=O)CN4CCN(C)CC4)cc3)c3ccccc3)c(O)[nH]c2c1 + CC1OCC2(CCN(c3cnc(Sc4ccnc(N)c4Cl)c(N)n3)CC2)C1N; 2.26
COc1cc(Nc2ncc3c(n2)-c2ccc(Cl)cc2C(c2c(F)cccc2OC)=NC3)ccc1C(=O)O + CNCc1ccccc1-c1csc(C(C)Nc2nc(C)nc3cc(OC)c(OC)cc23)c1; 49.2
CCNC(=O)CC1N=C(c2ccc(Cl)cc2)c2cc(OC)ccc2-n2c(C)nnc21 (stereo unspecified) + C=CC(=O)N1CCN(c2nc(=O)n(-c3c(C)ccnc3C(C)C)c3nc(-c4c(O)cccc4F)c(F)cc23)C(C)C1; 121
O=C(c1cc(Cc2n[nH]c(=O)c3ccccc23)ccc1F)N1CCN(C(=O)C2CC2)CC1 + CNCc1ccccc1-c1csc(C(C)Nc2nc(C)nc3cc(OC)c(OC)cc23)c1; 72
COc1cc(Nc2ncc3c(n2)-c2ccc(Cl)cc2C(c2c(F)cccc2OC)=NC3)ccc1C(=O)O + CC1OCC2(CCN(c3cnc(Sc4ccnc(N)c4Cl)c(N)n3)CC2)C1N; 60.1

The recorded viability, T/C for entry CCNC(=O)CC1N=C(c2ccc(Cl)cc2)c2cc(OC)ccc2-n2c(C)nnc21 (stereo unspecified) + COc1cc2nc(C)nc(NC(C)c3cc(N)cc(C(F)(F)F)c3)c2cc1OC1CCOC1 equals 120

The recorded viability, T/C for entry CC1OCC2(CCN(c3cnc(Sc4ccnc(N)c4Cl)c(N)n3)CC2)C1N (stereo unspecified) + CNCc1ccccc1-c1csc(C(C)Nc2nc(C)nc3cc(OC)c(OC)cc23)c1 equals 51.9

The recorded viability, T/C for entry CC1(C)CCC(CN2CCN(c3ccc(C(=O)NS(=O)(=O)c4ccc(NCC5CCOCC5)c([N+](=O)[O-])c4)c(Oc4cnc5[nH]ccc5c4)c3)CC2)=C(c2ccc(Cl)cc2)C1 + C=CC(=O)N1CCN(c2nc(=O)n(-c3c(C)ccnc3C(C)C)c3nc(-c4c(O)cccc4F)c(F)cc23)C(C)C1 equals 2.28

The recorded viability, T/C for entry COc1cc2nccc(Oc3ccc(NC(=O)C4(C(=O)Nc5ccc(F)cc5)CC4)cc3)c2cc1OC + CNCc1ccccc1-c1csc(C(C)Nc2nc(C)nc3cc(OC)c(OC)cc23)c1 equals 24.3

The recorded viability, T/C for entry CC1(C)CCC(CN2CCN(c3ccc(C(=O)NS(=O)(=O)c4ccc(NCC5CCOCC5)c([N+](=O)[O-])c4)c(Oc4cnc5[nH]ccc5c4)c3)CC2)=C(c2ccc(Cl)cc2)C1 + CC1OCC2(CCN(c3cnc(Sc4ccnc(N)c4Cl)c(N)n3)CC2)C1N equals 4.11

The recorded viability, T/C for entry COc1cc2nccc(Oc3ccc(NC(=O)C4(C(=O)Nc5ccc(F)cc5)CC4)cc3)c2cc1OC + CC1OCC2(CCN(c3cnc(Sc4ccnc(N)c4Cl)c(N)n3)CC2)C1N equals 27.6

----------
Test system: HUVEC/MSC spheroids viability
Assay: Human HUVEC/MSC cell line growth inhibition [KRAS2];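 further: percent of DMSO vehicle control luminescence so 100% = untreated viability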
Conditions: second compound 3.16 µM; first compound 0.1 µM; active compounds read low
Quick reference: viability, T/C of the listed items.
The reply should be a number in %, with the unit left off.

Solved cases (8 shown):
O=C(c1cc(Cc2n[nH]c(=O)c3ccccc23)ccc1F)N1CCN(C(=O)C2CC2)CC1 + CC1OCC2(CCN(c3cnc(Sc4ccnc(N)c4Cl)c(N)n3)CC2)C1N; 96.3
COc1cc2nccc(Oc3ccc(NC(=O)C4(C(=O)Nc5ccc(F)cc5)CC4)cc3)c2cc1OC + COc1cc2nc(C)nc(NC(C)c3cc(N)cc(C(F)(F)F)c3)c2cc1OC1CCOC1; 67.2
CC1(C)CCC(CN2CCN(c3ccc(C(=O)NS(=O)(=O)c4ccc(NCC5CCOCC5)c([N+](=O)[O-])c4)c(Oc4cnc5[nH]ccc5c4)c3)CC2)=C(c2ccc(Cl)cc2)C1 + COc1cc2nc(C)nc(NC(C)c3cc(N)cc(C(F)(F)F)c3)c2cc1OC1CCOC1; 105
CC(C)n1nc(-c2ccc3oc(N)nc3c2)c2c(N)ncnc21 + COc1cc2nc(C)nc(NC(C)c3cc(N)cc(C(F)(F)F)c3)c2cc1OC1CCOC1; 43.1
CN(C)C/C=C/C(=O)Nc1cc2c(Nc3ccc(F)c(Cl)c3)ncnc2cc1O[C@H]1CCOC1 + CC1OCC2(CCN(c3cnc(Sc4ccnc(N)c4Cl)c(N)n3)CC2)C1N; 103
CCN1CCN(Cc2ccc(Nc3ncc(F)c(-c4cc(F)c5nc(C)n(C(C)C)c5c4)n3)nc2)CC1 + CNCc1ccccc1-c1csc(C(C)Nc2nc(C)nc3cc(OC)c(OC)cc23)c1; 92.8
O=C(c1cc(Cc2n[nH]c(=O)c3ccccc23)ccc1F)N1CCN(C(=O)C2CC2)CC1 + CNCc1ccccc1-c1csc(C(C)Nc2nc(C)nc3cc(OC)c(OC)cc23)c1; 87.8
O=C(c1cc(Cc2n[nH]c(=O)c3ccccc23)ccc1F)N1CCN(C(=O)C2CC2)CC1 + COc1cc2nc(C)nc(NC(C)c3cc(N)cc(C(F)(F)F)c3)c2cc1OC1CCOC1; 101

The recorded viability, T/C for entry CCNC(=O)CC1N=C(c2ccc(Cl)cc2)c2cc(OC)ccc2-n2c(C)nnc21 (stereo unspecified) + COc1cc2nc(C)nc(NC(C)c3cc(N)cc(C(F)(F)F)c3)c2cc1OC1CCOC1 equals 81.1

The recorded viability, T/C for entry Cn1ncnc1[C@H]1c2n[nH]c(=O)c3cc(F)cc(c23)N[C@@H]1c1ccc(F)cc1 + C=CC(=O)N1CCN(c2nc(=O)n(-c3c(C)ccnc3C(C)C)c3nc(-c4c(O)cccc4F)c(F)cc23)C(C)C1 equals 93.5

The recorded viability, T/C for entry CN(C)C/C=C/C(=O)Nc1cc2c(Nc3ccc(F)c(Cl)c3)ncnc2cc1O[C@H]1CCOC1 + CNCc1ccccc1-c1csc(C(C)Nc2nc(C)nc3cc(OC)c(OC)cc23)c1 equals 84.4

The recorded viability, T/C for entry CCN1CCN(Cc2ccc(Nc3ncc(F)c(-c4cc(F)c5nc(C)n(C(C)C)c5c4)n3)nc2)CC1 + C=CC(=O)N1CCN(c2nc(=O)n(-c3c(C)ccnc3C(C)C)c3nc(-c4c(O)cccc4F)c(F)cc23)C(C)C1 equals 121

The recorded viability, T/C for entry COc1cc2nccc(Oc3ccc(NC(=O)C4(C(=O)Nc5ccc(F)cc5)CC4)cc3)c2cc1OC + CC1OCC2(CCN(c3cnc(Sc4ccnc(N)c4Cl)c(N)n3)CC2)C1N equals 79

The recorded viability, T/C for entry CCN1CCN(Cc2ccc(Nc3ncc(F)c(-c4cc(F)c5nc(C)n(C(C)C)c5c4)n3)nc2)CC1 + COc1cc2nc(C)nc(NC(C)c3cc(N)cc(C(F)(F)F)c3)c2cc1OC1CCOC1 equals 69.9
